Tested on: TK-10
Experiment: GI50 of drug in presence of dasatinib; higher = less potent
Settings: treatment: drug + dasatinib (fixed dose, not stated); 5 days
Readout Name: GI50 of drug (nM)
Numbers only, in nM.

Request: Find the recorded GI50 of drug belonging to COc1ncc(-c2ccc3nccc(-c4ccnnc4)c3c2)cc1NS(=O)(=O)c1ccc(F)cc1F + Cc1nc(Nc2ncc(C(=O)Nc3c(C)cccc3Cl)s2)cc(N2CCN(CCO)CC2)n1 [dasatinib] and report it.
Response: 16.5

Request: Note, next up: COc1cc(OC)c(/C=C/S(=O)(=O)Cc2ccc(OC)c(NCC(=O)[O][Na])c2)c(OC)c1 + Cc1nc(Nc2ncc(C(=O)Nc3c(C)cccc3Cl)s2)cc(N2CCN(CCO)CC2)n1 [dasatinib]
Response: 148

Request: Note, next up: COCC(=O)NC/C=C/c1ccc2ncnc(Nc3ccc(Oc4ccc(C)nc4)c(C)c3)c2c1 + Cc1nc(Nc2ncc(C(=O)Nc3c(C)cccc3Cl)s2)cc(N2CCN(CCO)CC2)n1 [dasatinib]
Response: 3970

Request: Note, next up: CNC(=O)c1cc(COc2nnc(Nc3ccc(Cl)cc3)c3ccoc23)ccn1 [Telatinib (BAY 57-9352)] + Cc1nc(Nc2ncc(C(=O)Nc3c(C)cccc3Cl)s2)cc(N2CCN(CCO)CC2)n1 [dasatinib]
Response: 4840

Request: Note, next up: O=C(NOC[C@H](O)CO)c1ccc(F)c(F)c1Nc1ccc(I)cc1F + Cc1nc(Nc2ncc(C(=O)Nc3c(C)cccc3Cl)s2)cc(N2CCN(CCO)CC2)n1 [dasatinib]
Response: 335

Request: Note, next up: COc1cc(CCc2cc(NC(=O)c3ccc(N4C[C@@H](C)N[C@@H](C)C4)cc3)n[nH]2)cc(OC)c1 [AZD4547] + Cc1nc(Nc2ncc(C(=O)Nc3c(C)cccc3Cl)s2)cc(N2CCN(CCO)CC2)n1 [dasatinib]
Response: 3000

Request: Note, next up: C=CC(=O)Nc1ccc2ncnc(Nc3ccc(OCc4cccc(F)c4)c(Cl)c3)c2c1.Cc1ccc(S(=O)(=O)O)cc1 [AST-1306] + Cc1nc(Nc2ncc(C(=O)Nc3c(C)cccc3Cl)s2)cc(N2CCN(CCO)CC2)n1 [dasatinib]
Response: 406

Request: Note, next up: CS(=O)(=O)CCNCc1ccc(-c2ccc3ncnc(Nc4ccc(OCc5cccc(F)c5)c(Cl)c4)c3c2)o1.Cc1ccc(S(=O)(=O)O)cc1.Cc1ccc(S(=O)(=O)O)cc1 [Lapatinib Ditosylate (Tykerb)] + Cc1nc(Nc2ncc(C(=O)Nc3c(C)cccc3Cl)s2)cc(N2CCN(CCO)CC2)n1 [dasatinib]
Response: 3340

For every listed record, write down its GI50 of drug.
1. O=C(Nc1cc(C(F)(F)F)cc(C(F)(F)F)c1)c1cc(Cl)ccc1O [IMD 0354] + Cc1nc(Nc2ncc(C(=O)Nc3c(C)cccc3Cl)s2)cc(N2CCN(CCO)CC2)n1 [dasatinib]
2. CCCCOc1c(C(=O)c2c(F)cc(C)cc2F)cnc2[nH]ncc12 + Cc1nc(Nc2ncc(C(=O)Nc3c(C)cccc3Cl)s2)cc(N2CCN(CCO)CC2)n1 [dasatinib]
3. CN(C)C/C=C/C(=O)Nc1cc2c(Nc3ccc(F)c(Cl)c3)ncnc2cc1O[C@H]1CCOC1 [Afatinib (BIBW2992)] + Cc1nc(Nc2ncc(C(=O)Nc3c(C)cccc3Cl)s2)cc(N2CCN(CCO)CC2)n1 [dasatinib]

Response:
1: 759; 2: 322; 3: 72.5
